What Tmax was measured for each of the following?
# test.name: Pharmacokinetics of compounds 1–11 in rat plasma (UPLC-TQ/MS) after oral administration of HYD and plus-minus Haizao/Gancao decoctions
# Assay type: in vivo, Wistar rats (PTU-induced model of hypothyroidism)
# assay.setup: Wistar, 12 mL/kg, group HYD, 12 mL/kg intragastrically, model rats, n = 6, mean ± S.D.

Here are 6 molecules. What values of Tmax were reported for them?
1. O=C1C[C@@H](c2ccc(O[C@@H]3O[C@H](CO)[C@@H](O)[C@H](O)[C@H]3O)cc2)Oc2cc(O)ccc21
2. O=C1C[C@@H](c2ccc(O)cc2)Oc2cc(O)ccc21
3. C[C@@H]1O[C@@H](O[C@H]2[C@H](Oc3cc(O)c4c(c3)O[C@H](c3ccc(O)cc3)CC4=O)O[C@H](CO)[C@@H](O)[C@@H]2O)[C@H](O)[C@H](O)[C@H]1O
4. COc1ccc(-c2cc(=O)c3c(OC)c(OC)c(OC)c(OC)c3o2)cc1OC
5. COc1c2ccoc2cc2oc(=O)ccc12
6. CC1(C)[C@@H](O)CC[C@]2(C)[C@H]3C(=O)C=C4[C@@H]5C[C@@](C)(C(=O)O)CC[C@]5(C)CC[C@@]4(C)[C@]3(C)CC[C@@H]12

1: 11.4 min; 2: 165 min; 3: 10.2 min; 4: 40.2 min; 5: 19.8 min; 6: 560 min

Here are 2 molecules. What values of Tmax were reported for them?
1. CC1(C)[C@@H](O[C@H]2O[C@H](C(=O)O)[C@@H](O)[C@H](O)[C@H]2O[C@@H]2O[C@H](C(=O)O)[C@@H](O)[C@H](O)[C@H]2O)CC[C@]2(C)[C@H]3C(=O)C=C4[C@@H]5C[C@@](C)(C(=O)O)CC[C@]5(C)CC[C@@]4(C)[C@]3(C)CC[C@@H]12
2. COc1ccc2ccc(=O)oc2c1CC=C(C)C

1: 17.5 min; 2: 36.6 min

* * *

# test.name: Pharmacokinetics of compounds 1–11 in rat plasma (UPLC-TQ/MS) after oral administration of HYD and plus-minus Haizao/Gancao decoctions
# Format: in vivo, Wistar rats (PTU-induced model of hypothyroidism)
# assay.setup: Wistar, 11 mL/kg, group HYD-HZ (HYD minus Haizao), 11 mL/kg intragastrically, model rats, n = 6, mean ± S.D.
What AUC(0-t) was measured for each of the following?
Report as: number unit

Answered cases to consult:
INSERT INTO assay_data (molecular_string, recorded_metric, val) VALUES
  ('COc1ccc2ccc(=O)oc2c1CC=C(C)C', 'AUC(0-t)', '295 ng·h/mL'),
  ('C[C@@H]1O[C@@H](O[C@H]2[C@H](Oc3cc(O)c4c(c3)O[C@H](c3ccc(O)cc3)CC4=O)O[C@H](CO)[C@@H](O)[C@@H]2O)[C@H](O)[C@H](O)[C@H]1O', 'AUC(0-t)', '1060 ng·h/mL');

Here's the next entry for you.
Query (compound): O=C1C[C@@H](c2ccc(O)cc2)Oc2cc(O)ccc21 ; field requested: AUC(0-t)
2150 ng·h/mL

* * *

# test.name: Pharmacokinetics of compounds 1–11 in rat plasma (UPLC-TQ/MS) after oral administration of HYD and plus-minus Haizao/Gancao decoctions
# Format: in vivo, Wistar rats (PTU-induced model of hypothyroidism)
# assay.setup: Wistar, 10 mL/kg, group HYD-GH (HYD minus Gancao and Haizao; HYD-GC-HZ), 10 mL/kg intragastrically, model rats, n = 6, mean ± S.D.
recorded.metric: Cmax (ng/mL)
Numbers only, in ng/mL.

Answered cases to consult:
INSERT INTO assay_data (molecular_string, result_unit, val) VALUES
  ('COc1ccc2ccc(=O)oc2c1CC=C(C)C', 'ng/mL', 69.2),
  ('C[C@@H]1O[C@@H](O[C@H]2[C@H](Oc3cc(O)c4c(c3)O[C@H](c3ccc(O)cc3)CC4=O)O[C@H](CO)[C@@H](O)[C@@H]2O)[C@H](O)[C@H](O)[C@H]1O', 'ng/mL', 424),
  ('COc1c2ccoc2cc2oc(=O)ccc12', 'ng/mL', 125);

Here's the next entry for you.
Query (molecule): COc1ccc(-c2cc(=O)c3c(OC)c(OC)c(OC)c(OC)c3o2)cc1OC ; field requested: Cmax
311

* * *

What half-life was measured for each of the following?
# test.name: Pharmacokinetics of compounds 1–11 in rat plasma (UPLC-TQ/MS) after oral administration of HYD and plus-minus Haizao/Gancao decoctions
# Assay type: in vivo, Wistar rats (PTU-induced model of hypothyroidism)
# assay.setup: Wistar, 12 mL/kg, group HYD, 12 mL/kg intragastrically, model rats, n = 6, mean ± S.D.
# Experimental: Plasma samples (200 μL) and IS solution (50 μL, 1215 ng/mL for diphenhydramine, 476 ng/mL for chloromycetin) were added to an Eppendorf tube, and this mixture was extracted with methanol (550 μL) by shaking on a vortex-mixer for 2 min, and centrifuged for 10 min at 13,000 rpm. The contents were evaporated to dryness in a rotary evaporator at 37 °C. The residue was reconstituted in methanol (100 μL) and centrifuged (13,000 rpm for 10 min). […]
One number for each entry, in h.

Answered cases to consult:
INSERT INTO results (compound, recorded_metric, val) VALUES
  ('COc1ccc(-c2cc(=O)c3c(OC)c(OC)c(OC)c(OC)c3o2)cc1OC [Compound 9, nobiletin]', 'half-life', 6.03),
  ('COc1ccc2ccc(=O)oc2c1CC=C(C)C [Compound 10, osthole]', 'half-life', 1.25),
  ('O=C1C[C@@H](c2ccc(O)cc2)Oc2cc(O)ccc21 [Compound 6, liquiritigenin]', 'half-life', 4.05),
  ('CC1(C)[C@@H](O)CC[C@]2(C)[C@H]3C(=O)C=C4[C@@H]5C[C@@](C)(C(=O)O)CC[C@]5(C)CC[C@@]4(C)[C@]3(C)CC[C@@H]12 [Compound 11, glycyrrhetinic acid]', 'half-life', 3.01),
  ('C[C@@H]1O[C@@H](O[C@H]2[C@H](Oc3cc(O)c4c(c3)O[C@H](c3ccc(O)cc3)CC4=O)O[C@H](CO)[C@@H](O)[C@@H]2O)[C@H](O)[C@H](O)[C@H]1O [Compound 2, naringin]', 'half-life', 11.3);

Here are 3 compounds. What values of half-life were reported for them?
1. CC1(C)[C@@H](O[C@H]2O[C@H](C(=O)O)[C@@H](O)[C@H](O)[C@H]2O[C@@H]2O[C@H](C(=O)O)[C@@H](O)[C@H](O)[C@H]2O)CC[C@]2(C)[C@H]3C(=O)C=C4[C@@H]5C[C@@](C)(C(=O)O)CC[C@]5(C)CC[C@@]4(C)[C@]3(C)CC[C@@H]12 [Compound 7, glycyrrhizic acid]
2. O=C1C[C@@H](c2ccc(O[C@@H]3O[C@H](CO)[C@@H](O)[C@H](O)[C@H]3O)cc2)Oc2cc(O)ccc21 [Compound 1, liquiritin]
3. COc1c2ccoc2cc2oc(=O)ccc12 [Compound 8, bergapten]

1: 1.58; 2: 9.23; 3: 1.56

* * *

What Cmax was measured for each of the following?
# test.name: Pharmacokinetics of compounds 1–11 in rat plasma (UPLC-TQ/MS) after oral administration of HYD and plus-minus Haizao/Gancao decoctions
# Format: in vivo, Wistar rats (PTU-induced model of hypothyroidism)
# assay.setup: Wistar, 11 mL/kg, group HYD-HZ (HYD minus Haizao), 11 mL/kg intragastrically, model rats, n = 6, mean ± S.D.
# Procedure: Plasma samples (200 μL) and IS solution (50 μL, 1215 ng/mL for diphenhydramine, 476 ng/mL for chloromycetin) were added to an Eppendorf tube, and this mixture was extracted with methanol (550 μL) by shaking on a vortex-mixer for 2 min, and centrifuged for 10 min at 13,000 rpm. The contents were evaporated to dryness in a rotary evaporator at 37 °C. The residue was reconstituted in methanol (100 μL) and centrifuged (13,000 rpm for 10 min). […]
Give bare numbers, in ng/mL.

Here are 4 compounds. What values of Cmax were reported for them?
1. COc1ccc2ccc(=O)oc2c1CC=C(C)C [Compound 10, osthole]
2. COc1c2ccoc2cc2oc(=O)ccc12 [Compound 8, bergapten]
3. O=C1C[C@@H](c2ccc(O)cc2)Oc2cc(O)ccc21 [Compound 6, liquiritigenin]
4. CC1(C)[C@@H](O)CC[C@]2(C)[C@H]3C(=O)C=C4[C@@H]5C[C@@](C)(C(=O)O)CC[C@]5(C)CC[C@@]4(C)[C@]3(C)CC[C@@H]12 [Compound 11, glycyrrhetinic acid]

[295, 192, 276, 756]

* * *

# test.name: Pharmacokinetics of compounds 1–11 in rat plasma (UPLC-TQ/MS) after oral administration of HYD and plus-minus Haizao/Gancao decoctions
# Assay type: in vivo, Wistar rats (PTU-induced model of hypothyroidism)
# assay.setup: Wistar, 2 mL/kg, group GH (extract of Gancao and Haizao), 2 mL/kg intragastrically, model rats, n = 6, mean ± S.D.
# Method: Plasma samples (200 μL) and IS solution (50 μL, 1215 ng/mL for diphenhydramine, 476 ng/mL for chloromycetin) were added to an Eppendorf tube, and this mixture was extracted with methanol (550 μL) by shaking on a vortex-mixer for 2 min, and centrifuged for 10 min at 13,000 rpm. The contents were evaporated to dryness in a rotary evaporator at 37 °C. The residue was reconstituted in methanol (100 μL) and centrifuged (13,000 rpm for 10 min). […]
recorded.metric: Cmax (ng/mL)
Give bare numbers, in ng/mL.

INSERT INTO measurements (molecular_string, recorded_metric, result_unit, val) VALUES
  ('O=C1C[C@@H](c2ccc(O[C@@H]3O[C@H](CO)[C@@H](O)[C@H](O)[C@H]3O)cc2)Oc2cc(O)ccc21', 'Cmax', 'ng/mL', 254),
  ('CC1(C)[C@@H](O)CC[C@]2(C)[C@H]3C(=O)C=C4[C@@H]5C[C@@](C)(C(=O)O)CC[C@]5(C)CC[C@@]4(C)[C@]3(C)CC[C@@H]12', 'Cmax', 'ng/mL', 1250),
  ('O=C1C[C@@H](c2ccc(O)cc2)Oc2cc(O)ccc21', 'Cmax', 'ng/mL', 211);

Here's the next entry for you.
Query (molecule): CC1(C)[C@@H](O[C@H]2O[C@H](C(=O)O)[C@@H](O)[C@H](O)[C@H]2O[C@@H]2O[C@H](C(=O)O)[C@@H](O)[C@H](O)[C@H]2O)CC[C@]2(C)[C@H]3C(=O)C=C4[C@@H]5C[C@@](C)(C(=O)O)CC[C@]5(C)CC[C@@]4(C)[C@]3(C)CC[C@@H]12 ; field requested: Cmax
1350
